- Target: Cloned Human 5-HT1D-1 (Homo sapiens)
- Sequence (P28221 whole entry): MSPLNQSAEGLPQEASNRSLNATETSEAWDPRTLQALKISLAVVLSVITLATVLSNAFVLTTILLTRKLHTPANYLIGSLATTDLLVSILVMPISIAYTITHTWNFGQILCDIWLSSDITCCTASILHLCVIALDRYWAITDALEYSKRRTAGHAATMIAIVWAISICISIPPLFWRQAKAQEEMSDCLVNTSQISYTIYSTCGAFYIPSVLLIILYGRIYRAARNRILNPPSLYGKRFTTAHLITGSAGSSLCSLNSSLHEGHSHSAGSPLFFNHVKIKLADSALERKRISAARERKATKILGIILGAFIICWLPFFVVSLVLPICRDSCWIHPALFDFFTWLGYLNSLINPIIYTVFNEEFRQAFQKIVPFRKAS
- Protocol: [3H]5-HT binding to cloned human 5-HT1D-1 (gene 8-30-84) in transfected cell membranes
Entries and their pKi values follow.
Give only the number. pKi is defined as minus log10 of concentration in molar units.

Param item = CN1C[C@H](CNC(=O)OCc2ccccc2)C[C@@H]2c3cccc4c3c(cn4C)C[C@H]21 [Metergoline] ; retrieve measured pKi.
8.24

* * *

- Target: Cloned Human 5-HT1D-1 (Homo sapiens)
- Protocol: [3H]5-HT binding to cloned human 5-HT1D-1 (gene 8-30-84) in transfected cell membranes
Entries and their Ki values follow.
Report as a plain number; the unit nM is understood.

| Compound | Target | Endpoint | Value measured |
| --- | --- | --- | --- |
| CC(C)NCC(O)COc1cccc2[nH]ccc12 (stereo not shown) | Cloned Human 5-HT1D-1 (Homo sapiens) | Ki | 4110 |

# get_value(readout= Ki, system= Cloned Human 5-HT1D-1 (Homo sapiens)) for COc1ccccc1N1CCN(CCCCN2C(=O)c3ccccc3C2=O)CC1
194

# get_value(readout= Ki, system= Cloned Human 5-HT1D-1 (Homo sapiens)) for Cc1nc2sccn2c(=O)c1CCN1CCC(=C(c2ccc(F)cc2)c2ccc(F)cc2)CC1
54
